system: Staphylococcus aureus; experiment: Antibacterial activity against Staphylococcus aureus 134/93 after 24 hrs by broth microdilution method; format: functional; details: Staphylococcus aureus, 134/93, 24 h
measure: MIC (µM)

Guide cases for MIC, answers given:
molecule	assay result
O=C(CCc1[nH]c2ccccc2c1C1=C(Br)C(=O)NC1=O)Nc1ccccc1	0.18
O=C(O)c1cn(C2CC2)c2cc(N3CCNCC3)c(F)cc2c1=O [CIPROFLOXACIN]	38.1
CCCCc1ccc2[nH]c(-c3ccc(OC)cc3)c(C3=C(Br)C(=O)NC3=O)c2c1	0.44
COc1ccc(-c2[nH]c3ccccc3c2C2=C(Br)C(=O)NC2=O)cc1	0.32
O=C1NC(=O)C(c2c(-c3ccc(OCc4ccccc4)cc3)[nH]c3ccccc23)=C1Br	0.21

a = O=C1NC(=O)C(c2c(-c3ccc(OCc4cccc5ccccc45)cc3)[nH]c3ccccc23)=C1Br
b = CCCc1ccc2[nH]c(-c3ccccc3)c(C3=C(Br)C(=O)NC3=O)c2c1
// query Determine, for a and b , which has the greater value of MIC. Reply with the label of the item you choose.
// result a
(a: 1.5 µM, b: 0.5 µM)

I = CCCCc1cccc2c(C3=C(Br)C(=O)NC3=O)c(-c3ccc(OC)cc3)[nH]c12
II = CCc1cccc2c(C3=C(Br)C(=O)NC3=O)c(-c3ccc(OC)cc3)[nH]c12
III = Cc1cccc(NC(=O)CCCc2[nH]c3ccccc3c2C2=C(Br)C(=O)NC2=O)c1
// query Order field: MIC | Direction: descending (largest first) Provide your answer as the labels ordered per the instruction.
// result III, II, I

P = CCCc1cccc2c(C3=C(Br)C(=O)NC3=O)c(-c3ccc(OC)cc3)[nH]c12
Q = CCCCc1ccc2[nH]c(-c3ccccc3)c(C3=C(Br)C(=O)NC3=O)c2c1
R = COc1cccc(-c2[nH]c3ccc(OC)cc3c2C2=C(Br)C(=O)NC2=O)c1
// query // ascending sort on recorded MIC Provide your answer as the labels ordered per the instruction.
// result Q, P, R
(Q: 0.24 µM, P: 0.5 µM, R: 1.9 µM)

a = CCCc1ccc2[nH]c(-c3ccc(OC)cc3)c(C3=C(Br)C(=O)NC3=O)c2c1
b = CCCCCOc1ccc(-c2[nH]c3ccccc3c2C2=C(Br)C(=O)NC2=O)cc1
c = CCc1ccc2[nH]c(-c3ccc(OC)cc3)c(C3=C(Br)C(=O)NC3=O)c2c1
d = O=C(CCCCCCc1[nH]c2ccccc2c1C1=C(Br)C(=O)NC1=O)Nc1ccccc1
// query // ascending sort on recorded MIC Provide your answer as the labels ordered per the instruction.
// result d, c, a, b

1 = CCOc1ccc2[nH]c(-c3ccccc3)c(C3=C(Br)C(=O)NC3=O)c2c1
2 = CCCCCCCCOc1ccc(-c2[nH]c3ccccc3c2C2=C(Br)C(=O)NC2=O)cc1
// query // compare: 1 vs 2 , metric MIC, want the smaller Reply with the label of the item you choose.
// result 1
